# Tested on: SK-MEL-28 melanoma
# test: NCI tumour cell line growth inhibition, 48 h
metric name: TGI (µM)
Your answer is read as µM, so omit the unit and give the number.

Before answering, review these 2 worked examples.
CCCCCCNC(=O)Oc1ccc(/C(=C(\C)c2ccccc2)c2ccc(OCCN(CC)CC)cc2)cc1 : 9.3
O=C(Nc1ccc(I)cc1F)c1cc(I)ccc1O : 2.84

Which TGI value is on record for CO[C@H](C(=O)O)[C@@H]1Cc2cc3cc(OC4CC(OC5CC(O)C(O)C(C)O5)C(O)C(C)O4)c(C)c(O)c3c(O)c2C(=O)[C@H]1OC1CC(OC2CC(OC3CC(C)(O)C(O)C(C)O3)C(O)C(C)O2)C(O)C(C)O1 (stereo partly specified) ?
1.99

Which TGI value is on record for `O=c1c2c3c(sc2n2c(-c4ccc(Br)cc4)nnc2n1Cc1ccccc1)CCCC3` ?
19.9

* * *

# System: UACC-62 melanoma
# test: NCI tumour cell line growth inhibition, 48 h
Listing of entries alongside the reported TGI.

Before answering, review these 3 worked examples.
Nc1c(C(=O)Nc2cccc(Br)c2)sc2nc3c(cc12)C(O)CCC3 (stereo unspecified) : > 94.9 µM
CN1B(c2ccccc2)N(C)C(=O)N(C)C1=O : > 100 µM
O=S(=O)(O)ONC1=NCCN1 : > 100 µM

Which TGI value is on record for `O=[N+]([O-])c1cc(Cl)ccc1S(=O)(=O)N1CCCc2cc(Cl)ccc21` ?
> 100 µM

Which TGI value is on record for COc1cc([C@@H]2c3cc4c(cc3C(OC3O[C@@H]5COC(C)O[C@H]5[C@H](O)[C@H]3O)C3COC(=O)[C@@H]32)OCO4)cc(OC)c1O (stereo partly specified) ?
> 44.9 µM

Which TGI value is on record for `O=C(Nc1cccc(C(F)(F)F)c1)c1cc(Br)cc(Br)c1O` ?
> 10 µM

* * *

Listing of entries alongside the reported TGI.
# Test system: LOX IMVI melanoma
# test: NCI tumour cell line growth inhibition, 48 h

Before answering, review these 4 worked examples.
CC(=O)CC(=O)/C=C/c1cccs1 : > 100 µM
CN1CCN(CCOc2ccc(-c3cnc4c(-c5ccc(F)cc5)cnn4c3)cc2)CC1 : 3.25 µM
CSC1=C(C(=O)Nc2ccccc2)C(N)=NC1=O : > 100 µM
CCCC1(N)CC(OC)OC(C)C1O (stereo not given) : > 100 µM

Next up:
Which TGI value is on record for `COc1cc(/C=N\O)nc(-c2ccccn2)c1` ?
> 100 µM

* * *

# Tested on: MDA-MB-231 breast
# test: NCI tumour cell line growth inhibition, 48 h; in the data active means GI50 below about 0.43 µM; inactive means the rest
Respond with a class label; see true (active), false (inactive)

O=[N+]([O-])c1cc(F)c2cccnc2c1O : false
COC(=O)[C@]12CC[C@@H](C)[C@H](C)[C@@H]1C1=CC[C@@H]3[C@@]4(C)CC(=O)[C@H](OC(=O)c5ccco5)[C@@]5(C)COC(=C45)C[C@@]3(C)[C@]1(C)CC2 : false
COc1cc(-c2nn(-c3ccc(NC(=O)c4cc(Cl)cc(Cl)c4)cc3)cc2-c2ccncc2)ccc1Cl : false
CO[C@H](C(=O)O)[C@@H]1Cc2cc3cc(OC4CC(OC5CC(O)C(O)C(C)O5)C(O)C(C)O4)c(C)c(O)c3c(O)c2C(=O)[C@H]1OC1CC(OC2CC(OC3CC(C)(O)C(O)C(C)O3)C(O)C(C)O2)C(O)C(C)O1 (stereo partly drawn) : false
O=c1c2c3c(sc2n2c(-c4ccc(Br)cc4)nnc2n1Cc1ccccc1)CCCC3 : false

Given `CCOC(=O)c1ccccc1-c1c2ccc(=[N+](C)C)cc-2oc2cc(N(C)C)ccc12` , state the outcome it received in this test.
true

Given `CCCCCc1c(C)[nH]c(/C=C2\N=C(c3ccc[nH]3)C=C2OCc2ccccc2)c1C` , state the outcome it received in this test.
true

Given `CC1(C)[C@@H](OC(N)=O)C=C[C@]2(C=O)[C@H]3CC[C@]4(C)[C@@H](c5ccc(=O)oc5)[C@@H](Cl)C[C@]4(O)C3=CC[C@@H]12` , state the outcome it received in this test.
true

* * *

# Tested on: MOLT-4 leukemia
# test: NCI tumour cell line growth inhibition, 48 h
metric name: TGI

GET /values?readout=TGI&system=MOLT-4 leukemia&item= CC(=O)OCC1OC(N2C(S)=C(C#N)C(c3ccco3)C(C(C)=O)=C2c2ccccc2)C(OC(C)=O)C(OC(C)=O)C1OC(C)=O (stereo unspecified)
> 100 µM

GET /values?readout=TGI&system=MOLT-4 leukemia&item= `CN(C)CCNc1nc2ccccc2c2c(=O)c3ccccc3sc12`
6.1 µM

GET /values?readout=TGI&system=MOLT-4 leukemia&item= `CCOP(=O)(OCC)C(C)(C)OC(=O)NC#N`
> 100 µM

GET /values?readout=TGI&system=MOLT-4 leukemia&item= `COc1ccc(NC(=O)/C=C(C)/C=C/C=C(C)\C=C\C2=C(C)CCCC2(C)C)cc1`
> 100 µM

GET /values?readout=TGI&system=MOLT-4 leukemia&item= `CN(C)c1ccc(/C=c2/c3cc([N+](=O)[O-])ccc3n3c2cc(-c2ccccc2)[n+]3C)cc1`
8.85 µM

GET /values?readout=TGI&system=MOLT-4 leukemia&item= `CC1=CC(=O)/C(=C/n2c(=S)[nH]c3ccccc32)C(=O)O1`
> 100 µM

* * *

Listing of entries alongside the reported TGI.
# Tested on: CCRF-CEM leukemia
# test: NCI tumour cell line growth inhibition, 48 h

Before answering, review these 5 worked examples.
COP(C)(=O)C(Cc1c[nH]c2ccccc12)NC(=O)OCc1ccccc1 (stereo unspecified) : > 100 µM
CC(=O)N(CN1C(=O)CCC1C(=O)O)c1ccccc1Cl (stereo unspecified) : > 100 µM
O=S(=O)(/N=C(\NO)Nc1ccc(Cl)cc1)c1ccc(-c2ccccn2)s1 : > 100 µM
Cc1cc(O)c(C(C)C)cc1N=Cc1ccccc1O : 0.0897 µM
CN(C)CC1CCCC/C1=N/OC(=O)c1ccc(Cl)c(Cl)c1 (stereo unspecified) : > 100 µM

Next up:
Which TGI value is on record for `CN1B(c2ccccc2)N(C)C(=O)N(C)C1=O` ?
> 100 µM

* * *

# Tested on: SK-MEL-28 melanoma
# test: NCI tumour cell line growth inhibition, 48 h
Listing of entries alongside the reported TGI.

Before answering, review these 3 worked examples.
CC(=O)O[C@H]1CC[C@H]2[C@@H]3CCC(C(C)=O)[C@H](C(=O)O)[C@H]3CC[C@]12C (some centres undefined) : > 100 µM
COc1cc2c(cc1OC)-c1ncc3cc4c(cc3c1C2)OCO4 : > 100 µM
O=C(/C(=C/c1ccccc1)c1ccccc1)N1c2ccccc2CC1c1c[nH]c2ccccc12 (centres undefined) : > 100 µM

Which TGI value is on record for `COc1cc(C=O)cc(C=Nc2ccc(S(N)(=O)=O)cc2)c1O` ?
99 µM

* * *

# Tested on: IGROV1 ovarian
# test: NCI tumour cell line growth inhibition, 48 h
Listing of entries alongside the reported TGI.

Before answering, review these 4 worked examples.
COC(=O)C1CC(C(=O)OC)c2nc3cc(C)c(C)cc3nc21 (stereo not given) : > 100 µM
CO[C@H](C(=O)O)[C@@H]1Cc2cc3cc(OC4CC(OC5CC(O)C(O)C(C)O5)C(O)C(C)O4)c(C)c(O)c3c(O)c2C(=O)[C@H]1OC1CC(OC2CC(OC3CC(C)(O)C(O)C(C)O3)C(O)C(C)O2)C(O)C(C)O1 (stereo not given in full) : > 32.5 µM
OC1c2ccccc2C(O)C2OC12 (stereo not given) : > 100 µM
O=S(=O)(O)ONC1=NCCN1 : > 100 µM

Next up:
Which TGI value is on record for `O=C(O)C(=O)CBr` ?
> 100 µM

* * *

# System: ACHN renal
# test: NCI tumour cell line growth inhibition, 48 h
Listing of entries alongside the reported TGI.
Your answer is read as µM, so omit the unit and give the number.

GET /values?readout=TGI&system=ACHN renal&item= `CCOC(=O)/C(C#N)=C/Nc1ccc(-c2nc3ccccc3[nH]2)cc1`
78

GET /values?readout=TGI&system=ACHN renal&item= `O=C1c2ccccc2-c2c1c1ccccc1c(=O)n2-c1ccccc1`
17.1

GET /values?readout=TGI&system=ACHN renal&item= `O=C(NCCCCOCC#Cc1ccccc1C#CCS(=O)(=O)c1ccccc1)c1cc2ccccc2[nH]1`
22.9

GET /values?readout=TGI&system=ACHN renal&item= `O=C1c2cc([N+](=O)[O-])sc2C(=O)c2ccsc21`
0.768

GET /values?readout=TGI&system=ACHN renal&item= COc1cc(C2c3cc4c(cc3[C@@H](Nc3ccc(N)cc3)C3COC(=O)[C@H]23)OCO4)cc(OC)c1O (stereo partly specified)
6.05
